Where do the numbers come from? From paper PMC8840040.

# protocol text: Urinary metabolites in 24 h urine by HPLC-MS/MS
# Assay type: in vivo, FVB mice
# run parameters: after intravenous ZST152, total dose 1.410 mg, mouse #1, 24 h urine
property label: Amount Recovered in urine (µg)

[in] Which value of Amount Recovered in urine has been reported for `COCCNC(=N)NCCC[C@H](N)C=NO` in the records?
[out] 1.48

[in] Which value of Amount Recovered in urine has been reported for `COCCNC(=N)NCCCC=O` in the records?
[out] 128

(I) COCCNC(=N)NCCCC(=O)O
(II) COCCNC(=N)NCCC[C@H](N)c1noc(=O)[nH]1
(III) COCCNC(=N)NCCC[C@H](N)C(=O)O
(IV) COCCNC(=N)N
(V) COCCNC(=N)NCCCCO
[in] Sort by Amount Recovered in urine, descending. In your reply, arrange the labels in the requested order.
[out] II, I, V, III, IV
(II: 148 µg, I: 93.3 µg, V: 2.62 µg, III: 1.77 µg, IV: 0.55 µg)

---

# protocol text: Plasma pharmacokinetics and urinary elimination after single oral and intravenous administration
# Assay type: in vivo, FVB mice
# run parameters: FVB, mouse, plasma, oral, 60 mg/Kg, p.o. 60 mg/Kg vs i.v. 30 mg/Kg, dose normalized; read-out: F % (bioavailability)
property label: bioavailability (%)
Express the result in % but write the number alone.

[in] Which value of bioavailability has been reported for `COCCNC(=N)NCCC[C@H](N)c1noc(=O)[nH]1` in the records?
[out] 33

---

# protocol text: Plasma pharmacokinetics and urinary elimination after acute and chronic intraperitoneal administration
# Assay type: in vivo, FVB mice
# run parameters: FVB, mouse, plasma, ip; i.p. 30 mg/Kg/day, chronic
property label: Tmax (min)
Express the result in min but write the number alone.

[in] Which value of Tmax has been reported for `COCCNC(=N)NCCC[C@H](N)C(=O)NS(C)(=O)=O` in the records?
[out] 15

---

# protocol text: Plasma pharmacokinetics and urinary elimination after single oral and intravenous administration
# Format: in vivo, FVB mice
# run parameters: FVB, mouse, plasma, iv; i.v. 30 mg/Kg; read-out: Vd (volume of distribution)
Measured Vd values are reported for all entries that follow.
Express the result in L/kg but write the number alone.

[in] Which value of Vd has been reported for COCCNC(=N)NCCC[C@H](N)C(=O)NS(C)(=O)=O [ZST316] in the records?
[out] 12.2

[in] Which value of Vd has been reported for COCCNC(=N)NCCC[C@H](N)c1noc(=O)[nH]1 [ZST152] in the records?
[out] 5.49

---

# protocol text: Plasma pharmacokinetics and urinary elimination after acute and chronic intraperitoneal administration
# Format: in vivo, FVB mice
# run parameters: FVB, mouse, plasma, ip, 30 mg/kg, i.p. 30 mg/Kg, acute; read-out: AUC 0-last
property label: AUC(0-t) (ng·h/mL)
Express the result in ng·h/mL but write the number alone.

[in] Which value of AUC(0-t) has been reported for `COCCNC(=N)NCCC[C@H](N)C(=O)NS(C)(=O)=O` in the records?
[out] 14400

---

# protocol text: Plasma pharmacokinetics and urinary elimination after acute and chronic intraperitoneal administration
# Type: in vivo, FVB mice
# run parameters: FVB, mouse, plasma, ip, 30 mg/kg/day, i.p. 30 mg/Kg/day, chronic; read-out: AUC 0-8h
property label: AUC(0-t) (ng·h/mL)
Express the result in ng·h/mL but write the number alone.

[in] Which value of AUC(0-t) has been reported for COCCNC(=N)NCCC[C@H](N)C(=O)NS(C)(=O)=O [ZST316] in the records?
[out] 12300
